experiment: qHTS Assay for Inhibitors of Hepatitis C Virus (HCV); conditions: Huh7.5.1 HCVcc-Cre infection, luciferase reporter, 44 h; series mostly up to 41.8 µM; also: potency is read from the fitted curve at half-maximal effect
In all, about 340,000 compounds went through this assay and about 12,000 (3.5%) were called active. Inconclusive results (about 18%) are left out. For the sample, actives were picked, then their nearest neighbours and some compounds at random.
observable: Potency

INSERT INTO results (compound, experimental_value) VALUES
  ('CCOC(=O)c1c(NC(=S)NC)sc2c1CCCC2', 'inactive'),
  ('N#Cc1c(-c2ccccc2)c(-c2ccccc2)n[nH]c1=O', 'inactive'),
  ('COC(=O)C1=C(C)Nc2ncnn2C1c1cccnc1 (stereo not drawn)', 'inactive'),
  ('CC(C)c1ccc(C=NNc2ccc([N+](=O)[O-])cn2)cc1', 'inactive'),
  ('COc1ccc(OC)c(CNC(=O)Cn2nc(C)c3c(C)n(-c4ccc(C)cc4)nc3c2=O)c1', '3.98 µM (active)'),
  ('COC(=O)C1=C(c2ccc(F)cc2OCc2ccccc2)C[C@@H]2CC[C@H]1N2C(=O)NCc1ccc2[nH]ccc2c1', 'inactive'),
  ('COc1ccc(CCNC(=O)C(=O)NCC2OCCN2S(=O)(=O)c2cccs2)cc1OC (stereo not drawn)', 'inactive'),
  ('O=C(COC(=O)c1ccc2c(c1)OCCO2)NCc1ccccc1Cl', 'inactive'),
  ('COC(=O)C1=C(c2ccccc2OCc2ccccc2)C[C@@H]2CC[C@H]1N2C(=O)NCc1ccc(OC)cc1', '11.2 µM (active)'),
  ('Cc1cc(C(=O)OCC(=O)N2C(C)CCCC2C)c2ccccc2n1 (stereo not drawn)', 'inactive'),
  ('O=C(CNC(=O)c1cc(S(=O)(=O)N2CCOCC2)ccc1N1CCCC1)Nc1ccc(F)c(F)c1', 'inactive'),
  ('COc1ccc(OCC(=O)NNC(=O)C2CCC2)cc1', 'inactive'),
  ('COc1cccc(C=CC(=O)C=CC=Cc2ccccc2)c1', 'inactive'),
  ('CCOC(=O)Cn1c(SC)nc2sc3c(c2c1=O)CC(C)(C)OC3', 'inactive'),
  ('Cc1cc(C)c[n+](-c2nc3ccccc3nc2[N-]S(=O)(=O)c2cccs2)c1', 'inactive'),
  ('CCCCN1C(N)=NC[C@@H]1Cc1ccccc1', 'inactive'),
  ('CCc1cccc(NC(=S)N(CCN(C)C)C2CCN(C(C)C)CC2)c1', '8.91 µM (active)'),
  ('O=S(=O)([N-]c1nc2ccccc2nc1-[n+]1ccc(Cc2ccccc2)cc1)c1ccc(Br)s1', '3.55 µM (active)'),
  ('CCOC(=O)N1CCN(C(c2cccnc2)c2ccc3cccnc3c2O)CC1 (stereo not drawn)', 'inactive'),
  ('COc1ccc(OC)c(C(c2nnnn2C(C)(C)C)N2CCc3ccccc3C2)c1 (stereo not drawn)', '7.94 µM (active)'),
  ('O=C(CNC(=O)c1ccccc1Br)NCCSc1ccc(Br)cc1', 'inactive'),
  ('COc1ccc(CNC(=O)C(C)n2nc(C)c3c(C)n(-c4ccccc4)nc3c2=O)c(OC)c1 (stereo not drawn)', 'inactive'),
  ('Cn1c(-c2ccc(F)cc2)cc2onc(-c3ccccc3Cl)c2c1=O', 'inactive');
